# Lookup of reported IC50 keyed by entry
target: Sodium channel protein type 2 subunit alpha (Rattus norvegicus, UniProt P04775); assay: Inhibitory activity against type IIA sodium channel in CNaIIA-1 cell line expressed in CHO cells
Sequence (P04775 whole entry): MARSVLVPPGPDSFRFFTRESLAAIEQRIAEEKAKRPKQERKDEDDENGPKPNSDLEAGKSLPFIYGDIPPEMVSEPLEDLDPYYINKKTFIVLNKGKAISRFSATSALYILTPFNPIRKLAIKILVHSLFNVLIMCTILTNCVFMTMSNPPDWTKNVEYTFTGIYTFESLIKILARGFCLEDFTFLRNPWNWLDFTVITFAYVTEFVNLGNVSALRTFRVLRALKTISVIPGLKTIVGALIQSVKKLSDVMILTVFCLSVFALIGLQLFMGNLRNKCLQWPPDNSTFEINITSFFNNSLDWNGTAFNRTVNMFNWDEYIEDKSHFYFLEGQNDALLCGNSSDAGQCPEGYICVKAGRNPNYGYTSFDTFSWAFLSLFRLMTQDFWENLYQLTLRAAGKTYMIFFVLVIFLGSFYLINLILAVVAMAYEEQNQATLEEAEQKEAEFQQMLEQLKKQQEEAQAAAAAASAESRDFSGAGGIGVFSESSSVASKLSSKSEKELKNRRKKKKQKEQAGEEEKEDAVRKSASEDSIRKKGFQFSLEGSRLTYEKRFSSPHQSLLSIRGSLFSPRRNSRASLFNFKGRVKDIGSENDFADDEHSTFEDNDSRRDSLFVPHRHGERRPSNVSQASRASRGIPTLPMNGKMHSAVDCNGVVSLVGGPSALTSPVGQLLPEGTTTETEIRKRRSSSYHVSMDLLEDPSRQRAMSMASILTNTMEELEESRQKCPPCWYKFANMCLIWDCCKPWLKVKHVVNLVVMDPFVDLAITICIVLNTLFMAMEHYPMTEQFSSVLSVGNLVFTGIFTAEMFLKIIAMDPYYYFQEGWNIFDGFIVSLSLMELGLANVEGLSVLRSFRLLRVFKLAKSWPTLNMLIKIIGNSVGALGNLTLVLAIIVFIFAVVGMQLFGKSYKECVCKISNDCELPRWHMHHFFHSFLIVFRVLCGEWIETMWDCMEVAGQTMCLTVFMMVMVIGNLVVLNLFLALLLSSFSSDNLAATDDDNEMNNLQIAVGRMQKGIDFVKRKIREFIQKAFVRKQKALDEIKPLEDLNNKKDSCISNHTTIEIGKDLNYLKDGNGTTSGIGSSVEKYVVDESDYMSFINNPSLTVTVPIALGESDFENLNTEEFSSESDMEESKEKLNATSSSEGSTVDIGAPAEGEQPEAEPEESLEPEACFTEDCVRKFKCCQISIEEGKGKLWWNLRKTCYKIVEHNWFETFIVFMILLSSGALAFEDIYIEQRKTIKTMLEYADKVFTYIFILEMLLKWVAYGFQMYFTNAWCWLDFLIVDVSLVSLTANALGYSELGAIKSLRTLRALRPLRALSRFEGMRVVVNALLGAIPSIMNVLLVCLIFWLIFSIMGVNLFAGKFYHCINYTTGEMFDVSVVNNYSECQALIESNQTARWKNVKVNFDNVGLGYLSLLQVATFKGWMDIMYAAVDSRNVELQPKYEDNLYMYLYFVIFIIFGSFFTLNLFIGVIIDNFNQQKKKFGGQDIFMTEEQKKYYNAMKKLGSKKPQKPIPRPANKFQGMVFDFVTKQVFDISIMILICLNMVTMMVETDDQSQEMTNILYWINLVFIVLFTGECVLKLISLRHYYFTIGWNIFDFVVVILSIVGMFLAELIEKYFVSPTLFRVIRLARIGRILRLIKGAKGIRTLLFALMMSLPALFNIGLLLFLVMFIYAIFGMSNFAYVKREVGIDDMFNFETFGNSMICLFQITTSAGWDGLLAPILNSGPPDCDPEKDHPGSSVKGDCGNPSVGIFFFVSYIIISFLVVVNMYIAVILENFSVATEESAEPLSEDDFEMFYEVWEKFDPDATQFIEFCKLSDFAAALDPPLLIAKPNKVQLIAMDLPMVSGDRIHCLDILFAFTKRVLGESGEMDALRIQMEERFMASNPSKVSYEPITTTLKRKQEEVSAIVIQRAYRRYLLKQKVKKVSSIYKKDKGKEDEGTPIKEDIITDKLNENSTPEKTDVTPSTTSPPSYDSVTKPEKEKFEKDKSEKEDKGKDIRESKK
// units = nM; emit number, no label

Take a look at these entries with their results.
Compound | IC50 [nM]
O=C(NC1CN2CCC1CC2)C(c1ccccc1)c1ccccc1 (stereo unspecified) | 95000
O=C(NCCCN1CCC(c2ccccc2)CC1)C(c1ccccc1)c1ccccc1 | 1100
O=c1[nH]c2ccccc2n1C1CCN(CCCC(c2ccc(F)cc2)c2ccc(F)cc2)CC1 [PIMOZIDE] | 340
CCN(CC)CCCNC(=O)C(c1ccccc1)c1ccccc1 | 4400
COc1ccccc1N1CCN(CCCNC(=O)C(c2ccccc2)c2ccccc2)CC1 | 1200

response.value for CC(CNC(=O)C(c1ccccc1)c1ccccc1)CN1CCC(c2ccccc2)CC1 (stereo unspecified) (field: IC50) = 1500

Measured IC50 of O=C(NCCCN1CCC(O)(c2ccccc2)CC1)C(c1ccccc1)c1ccccc1 : 2200

Just so you know, measured IC50 for O=C(NCCCCN1CCCCC1)C(c1ccccc1)c1ccccc1 came out at 10000

Sure, the documented IC50 for CN(CCCNC(=O)C(c1ccccc1)c1ccccc1)Cc1ccccc1 is 1200

Looking up NCCCNC(=O)C(c1ccccc1)c1ccccc1 , I found its IC50 recorded as 40000

Memo: CC1CN(CCCNC(=O)C(c2ccccc2)c2ccccc2)CC(C)O1 (stereo unspecified) , reported IC50: 2700

###

target: Sodium channel protein type 2 subunit alpha (Rattus norvegicus, UniProt P04775); assay: Inhibitory activity against type IIA sodium channel in CNaIIA-1 cell line expressed in CHO cells
Measurement Label: pIC50
Scale: pIC50 equals -log10([C]), with [C] in mol/L.

Smiles Notation | pIC50
O=C(NCCCN1CCOCC1)C(c1ccccc1)c1ccccc1 | 5.19
O=C(NCCCN1CCCCC1)C(c1ccccc1)c1ccccc1 | 5.28
O=C(NCCCN1CCC(Oc2ccccc2)CC1)C(c1ccccc1)c1ccccc1 | 5.85
O=C(NCCCN1CCN(Cc2ccccc2)CC1)C(c1ccccc1)c1ccccc1 | 6.15

Please turn your attention to the following entry.
Please fill in: pIC50 reported for CN(C)CCCNC(=O)C(c1ccccc1)c1ccccc1 = 4.70

###

target: Sodium channel protein type 2 subunit alpha (Rattus norvegicus); assay: Inhibitory activity against type IIA sodium channel in CNaIIA-1 cell line expressed in CHO cells
pIC50 for assorted molecules
Please express pIC50 as -log10 of the molar concentration.

Here are 4 molecules together with their reported answers.
Molecule | Study Target | pIC50
O=C(NCCCN1CCC(n2c(=O)[nH]c3ccccc32)CC1)C(c1ccccc1)c1ccccc1 | Sodium channel protein type 2 subunit alpha (Rattus norvegicus) | 6.14
CN1CCCC1CCNC(=O)C(c1ccccc1)c1ccccc1 (stereo unspecified) | Sodium channel protein type 2 subunit alpha (Rattus norvegicus) | 4.49
O=C(NCCCN1CCC(Cc2ccccc2)CC1)C(c1ccccc1)c1ccccc1 | Sodium channel protein type 2 subunit alpha (Rattus norvegicus) | 6.22
O=C(NCCN1CCCCC1)C(c1ccccc1)c1ccccc1 | Sodium channel protein type 2 subunit alpha (Rattus norvegicus) | 5.14

Kindly review the next molecule as well.
The recorded pIC50 for entry CC1CCC(C)N1CCCNC(=O)C(c1ccccc1)c1ccccc1 (stereo unspecified) equals 5.34

Just for reference, ChEMBL document CHEMBL1129544 is where these values come from.
